Target: Cytochrome P450 2D6 (Homo sapiens)
Assay: Cytochrome P450 family 2 subfamily D member 6 (CYP2D6) small molecule antagonists: luciferase biochemical (cell-free) qHTS assay (AID 1645840); further: nearly all actives have a fitted effect of over 55% in size
Conditions: P450-Glo CYP2D6 enzyme, luciferin luminescence, 1 h; series mostly up to 57.4 µM
Records with an inconclusive call do not appear. Calls of active or inactive are those of the source. The call rests on the fitted dose curve; in most records, active means well fitted inhibition curve with a large enough effect in the repeat runs; inconclusive means weak or mixed curves; inactive means flat fitted curve, though single readings scatter.
Select the correct class. Options are true (active), false (inactive) and nothing else.

Assay result, entry `NNc1nnc(NN)c2ccccc12` — outcome?
true

Which outcome was entered for the compound `NC(=O)N[C@@H](CCC(=O)O)C(=O)O` in this test?
false

Write down the call the test reported for this compound. Item: `Cn1c(=O)c2c(ncn2CCO)n(C)c1=O`
false

Test call for this compound, please: FC(F)(F)C(Cl)Br (stereo unspecified)
false

// param item: `CC(=O)N1C[C@H](O)C[C@H]1C(=O)O` ; yields the recorded call
false

# outcome recorded in this test, key = `COc1ccc(O)cc1`
false

Can you look up the reported call for `Cc1c(I)c(=O)n(-c2ccccc2)n1C` for me?
false

Please indicate how the test categorized `O=C1c2ccccc2S(=O)(=O)N1CCCCN1CCN(c2ncccn2)CC1` .
true

Which outcome was entered for the compound CC(C)CCCC(C)CCCC(C)CCCCC(C)CCCC(C)CCCC(C)C (stereo unspecified) in this test?
false

Answer briefly: the call reported for `O=C(O)CCC(=O)O` in this assay.
false

Entry `O=C(O)Cc1cn(-c2ccccc2)nc1-c1ccc(Cl)cc1` : call = ?
false

Recorded test call requested for `OCCN1C[C@H](O)[C@@H](O)[C@H](O)[C@H]1CO`
false

Kindly provide the recorded test outcome for the following compound: `Nc1ccncc1N`
false

Recorded test call requested for `COC(=O)c1ccccc1C(=O)c1ccc(OCCN2CCCCC2)cc1`
true

Can you look up the reported call for `O=C(O)COC(=O)Cc1ccccc1Nc1c(Cl)cccc1Cl` for me?
false

Each compound tested received a call. Report the one for `O=C1C(c2[nH]c3ccccc3c2O)=Nc2ccccc21` .
false

Dear all, I need the recorded test outcome for `O=C(O)c1ccccc1C(=O)Nc1ccc(S(=O)(=O)Nc2nccs2)cc1` , thank you.
false

Which outcome did this test record for the compound `CN1C(C)(C)CCCC1(C)C` ?
true

How did this test come out for `CNc1c2c(nn1C)CCCC2` ?
false

Can you look up the reported call for CC1(C)S[C@@H]2[C@H](NC(=O)C(C(=O)O)c3ccccc3)C(=O)N2[C@H]1C(=O)O (stereo partly specified) for me?
false

Record request — test call for `CN1CC(=O)NC1=N`
false

What was the test verdict on `CC(=O)[C@@]1(O)CC[C@H]2[C@@H]3C[C@H](C)C4=CC(=O)C=C[C@]4(C)[C@@]3(F)[C@@H](O)C[C@@]21C` ?
false

In this assay, the call recorded for CC(C)(C)NCC(O)COc1cccc2c1CCC(=O)N2 (stereo unspecified) was what?
false

Could you check what this test reported for `Cc1cc(C)nc(NS(=O)(=O)c2ccc(N)cc2)n1` ?
false

// return assay outcome for `Cc1c(C(=O)NCCO)[n+](=O)c2ccccc2n1[O-]`
false

Query: recorded result category for COCC(=O)Nc1c(I)c(C(=O)NCC(O)CO)c(I)c(C(=O)N(C)CC(O)CO)c1I (stereo unspecified) in this test
false
